What TGI was measured for each of the following?
System: DU-145 prostate
Assay: NCI tumour cell line growth inhibition, 48 h

- Clc1ccc(CCN2CCN(CCCc3ccccc3)CC2)cc1Cl: 30.4 µM
- CCO/C=N/C1=C(C#N)C(c2ccc(OC)c(OC)c2)c2c(-c3ccccc3)nn(-c3ccccc3)c2O1 (stereo not given): 28.7 µM
- CCOC(=O)c1ccccc1NC(c1ccccc1)c1ccc2cccnc2c1O (stereo not given): > 100 µM
- O=C1c2c(ccc3c2CCCC3)CC12Cc1ccccc1C2: > 100 µM
- CCN(CC)CCCC(C)NC(=S)N/N=C(\C)c1ccccn1 (stereo not given): > 100 µM
- C[Si](C)(C)C1=C2C(=O)c3ccccc3C(=O)C2=C([Si](C)(C)C)[C@@H]2CCCC[C@H]12: > 100 µM

Give TGI for each of the items listed below.
1. NC(=O)NOCC1NC(=O)NC1=O (stereo not given)
2. CCN1CCc2sc3[nH]c(=S)n(C)c(=O)c3c2C1

1: > 100 µM; 2: > 100 µM

Give TGI for each of the items listed below.
1. COc1ccc(N2CCN(CC(=O)N3CCN(c4nnc(-c5ccc(Cl)cc5)c(-c5ccc(Cl)cc5)n4)CC3)CC2)cc1
2. O=C(CSCC(=O)N/N=C\c1cc(Br)cc(Br)c1O)N/N=C\c1cc(Br)cc(Br)c1O

> 100 µM
> 100 µM

----------
Test system: HL-60(TB) leukemia
Test: NCI tumour cell line growth inhibition, 48 h; in the data active = GI50 below about 0.43 µM; inactive = the rest
Respond with a class label; see active, inactive

Example results:
- CCCCCCn1c(=N)n(CC(O)COc2cccc(C)c2)c2ccccc21 (stereo unspecified): inactive
- Oc1c(Br)cc(Br)c2cccnc12: inactive
- CNCc1ccc(C)c(NC(=O)c2ccc(Nc3nc(-c4ccccc4)c4ccccc4n3)cc2)c1: inactive
- NCCN.O=N[O-].O=N[O-].O=N[O-].O=N[O-].[Co+3].[K+]: inactive
- CN1CCN(Cc2ccc(NC(=O)c3cncc(C#Cc4c(N)ncc5ccc(F)cc45)c3)cc2C(F)(F)F)CC1: active

Per the records of this test, what outcome belongs to `C=C1C(=O)O[C@H]2[C@H]1CC/C(Cn1cc(CNC(=O)c3cc4ccccc4[nH]3)nn1)=C\CC[C@@]1(C)O[C@@H]21` ?
inactive

Repeat for the following molecule: CC(=O)OC1C(OC/C2=C/C3[C@@H](C(C)C)CC=C(C)[C@@H]3CC(OC(=O)/C=C/c3cn(C)cn3)[C@]3(C)C=C[C@@]2(O)O3)OCC(O)C1O (stereo partly specified)
active

Repeat for the following molecule: `C#Cc1cccc(NC(=O)Nc2cccc(NC(=O)CCl)c2)c1`
inactive

Repeat for the following molecule: `COc1cc2c(cc1Nc1nc(Nc3ccsc3C(N)=O)c3cc[nH]c3n1)N(C(=O)CN(C)C)CCC2`
active

Repeat for the following molecule: `O=C(/C=C/CN1CCCCC1)Nc1cc2c(Nc3ccc(F)c(Cl)c3F)ncnc2cc1OCCOC(F)F`
inactive

Repeat for the following molecule: COc1ccc(/C=C2\CC(C)CC3C2=NN(C(C)=O)C3c2ccc(OC)c(OC)c2)cc1OC (stereo unspecified)
inactive

Repeat for the following molecule: COc1ccc(C2CC(c3cccc(Nc4ccnc5cc(Cl)ccc45)c3)=NN2c2ccc(Cl)cc2)cc1 (stereo unspecified)
inactive

Repeat for the following molecule: N#CC1=C(N)Oc2c(ccc3ccccc23)C1c1ccccc1Cl (stereo unspecified)
active

Repeat for the following molecule: COc1ccc(C2CC(c3ccc(OC)c(OC)c3)=NN2C(=O)c2cc(OC)c(OC)c(OC)c2)cc1 (stereo unspecified)
inactive

Repeat for the following molecule: CCN(CC)CCC(CNc1c2ccc(Cl)cc2nc2ccc(OC)cc12)c1ccccc1 (stereo unspecified)
inactive

Repeat for the following molecule: `COc1ccc(C(=O)CC(Cl)=C(Cl)Cl)cc1`
inactive

FYI, the data here is from PubChem BioAssay (NCI).
